Method Summary: Two-component i,i+4 bis-thiol stapling: TCEP (1.1 eq) reduction for 1 h, then 2,3-dibromomaleimide (1.1 eq) for 1 h; two S-C(maleimide) thioether bonds formed
Conditions Used: the molecule shown is the open-chain precursor, 19-membered ring, MeCN/50 mM aq. ammonium acetate pH 7.4 (1:1), 3.3 mM, 14 steps
Measurement Type: ring closure, overall yield (%)
I only need the number, in %, no unit after it.

Q: I would be grateful if you could share the reported ring closure, overall yield for `CC(=O)N[C@H](CSC1=C(Br)C(=O)NC1=O)C(=O)N[C@@H](C)C(=O)N[C@@H](C)C(=O)N[C@@H](C)C(=O)N[C@H](CS)C(N)=O` .
Ans: 11

Q: I would be grateful if you could share the reported ring closure, overall yield for `CC(=O)N[C@H](CSC1=C(Br)C(=O)NC1=O)C(=O)N[C@@H](C)C(=O)N[C@@H](C)C(=O)N[C@@H](C)C(=O)N[C@@H](CS)C(N)=O` .
Ans: 7

Q: I would be grateful if you could share the reported ring closure, overall yield for `CC(=O)N[C@@H](CSC1=C(Br)C(=O)NC1=O)C(=O)N[C@@H](C)C(=O)N[C@@H](C)C(=O)N[C@@H](C)C(=O)N[C@H](CS)C(N)=O` .
Ans: 21

Q: I would be grateful if you could share the reported ring closure, overall yield for `CC(=O)N[C@@H](CSC1=C(Br)C(=O)NC1=O)C(=O)N[C@@H](C)C(=O)N[C@@H](C)C(=O)N[C@@H](C)C(=O)N[C@@H](CS)C(N)=O` .
Ans: 21

====

Method Summary: circular dichroism
Conditions Used: 10 mM sodium phosphate; pH 7.2; 25 °C; 250 uM
*1 amine or outer side, *2 acyl side, *3 side chain or, on linkers, in order; H or OH if unused. Where a SMILES comes first, the peptide text is derived from it. Bridges are numbered along the chain shown (N, C = ends). [ ]: non-standard residue; d: D form. Maleimide(3,4-diyl) = O=C1NC(=O)C([*:2])=C1[*:1]; hCys = N[C@@H](CCS)C(=O)O
Answer each item with its documented helicity.
I only need the number, in rel %, no unit after it.

Q: I would be grateful if you could share the reported helicity for CC(=O)N[C@H]1CCSC2=C(SCC[C@@H](C(N)=O)NC(=O)[C@H](C)NC(=O)[C@H](C)NC(=O)[C@H](C)NC1=O)C(=O)NC2=O (Ac-[hCys]AAA[hCys]-NH2; linker 1-5 via Maleimide(3,4-diyl)) .
Ans: 13

Q: I would be grateful if you could share the reported helicity for `CC(=O)N[C@H]1CSC2=C(SC[C@@H](C(N)=O)NC(=O)[C@H](C)NC(=O)[C@H](C)NC(=O)[C@H](C)NC1=O)C(=O)NC2=O` .
Ans: 25

Q: I would be grateful if you could share the reported helicity for CC(=O)N[C@H]1CCSC2=C(SC[C@@H](C(N)=O)NC(=O)[C@H](C)NC(=O)[C@H](C)NC(=O)[C@H](C)NC1=O)C(=O)NC2=O (Ac-[hCys]AAAC-NH2; linker 1-5 via Maleimide(3,4-diyl)) .
Ans: 11

====

Method Summary: circular dichroism
Conditions Used: 10 mM sodium phosphate; pH 7.2; 25 °C; 250 uM
*1 amine or outer side, *2 acyl side, *3 side chain or, on linkers, in order; H or OH if unused. Where a SMILES comes first, the peptide text is derived from it. Bridges are numbered along the chain shown (N, C = ends). [ ]: non-standard residue; d: D form. Maleimide(3,4-diyl) = O=C1NC(=O)C([*:2])=C1[*:1]; hCys = N[C@@H](CCS)C(=O)O
Answer each item with its documented helicity.
I only need the number, in rel %, no unit after it.

Q: I would be grateful if you could share the reported helicity for CC(=O)N[C@H]1CSC2=C(SCC[C@@H](C(N)=O)NC(=O)[C@H](C)NC(=O)[C@H](C)NC(=O)[C@H](C)NC1=O)C(=O)NC2=O (Ac-CAAA[hCys]-NH2; linker 1-5 via Maleimide(3,4-diyl)) .
Ans: 48

Q: I would be grateful if you could share the reported helicity for `CC(=O)N[C@H]1CSC2=C(SC[C@H](C(N)=O)NC(=O)[C@H](C)NC(=O)[C@H](C)NC(=O)[C@H](C)NC1=O)C(=O)NC2=O` .
Ans: 17

Q: I would be grateful if you could share the reported helicity for `CC(=O)N[C@@H]1CSC2=C(SC[C@@H](C(N)=O)NC(=O)[C@H](C)NC(=O)[C@H](C)NC(=O)[C@H](C)NC1=O)C(=O)NC2=O` .
Ans: 28

Q: I would be grateful if you could share the reported helicity for `CC(=O)N[C@@H]1CSC2=C(SC[C@H](C(N)=O)NC(=O)[C@H](C)NC(=O)[C@H](C)NC(=O)[C@H](C)NC1=O)C(=O)NC2=O` .
Ans: 13

Data provenance: paper PMC8650577
